- TEST_TARGET: Avi-KRAS WT (1-169) GppNHp/RAF1 RBD-3xFLAG (52-151) (Homo sapiens, UniProt P01116)
- Construct: Avi-KRAS WT (1-169)
- Sequence (P01116 1-169 isoform P01116-2): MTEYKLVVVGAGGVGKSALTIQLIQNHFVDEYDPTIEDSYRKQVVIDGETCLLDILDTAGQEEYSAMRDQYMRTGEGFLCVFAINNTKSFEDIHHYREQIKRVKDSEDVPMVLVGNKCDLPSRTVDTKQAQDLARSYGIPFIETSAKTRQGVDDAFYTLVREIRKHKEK
- ASSAY_PROTOCOL: Raf1-KRAS WT-GppNHP disruption HTRF assay (Biological Example 1)
- Assay type: binding
- ASSAY_CONTEXT: KRAS WT, GppNHp-loaded; Table 11
pIC50: −log10 of the molar value.
Recorded pIC50 values for a group of compounds are listed next.

The following compounds have reported results that may help.
[[record]]
compound = "CN(c1nc(OC[C@@]23CCCN2C[C@H](F)C3)nc2c(F)c(-c3ccc(F)c4sc(N)c(C#N)c34)c(C(F)(F)F)cc12)[C@@H]1CCN(S(C)(=O)=O)C1"
test_target = "Avi-KRAS WT (1-169) GppNHp/RAF1 RBD-3xFLAG (52-151) (Homo sapiens, UniProt P01116)"
val = "6.00 to 7.00"

[[record]]
compound = "CN1CCN(c2nc(OC[C@@]34CCCN3C[C@H](F)C4)nc3c(F)c(-c4ccc(F)c5sc(N)c(C#N)c45)c(C(F)(F)F)cc23)CCC1=O"
test_target = "Avi-KRAS WT (1-169) GppNHp/RAF1 RBD-3xFLAG (52-151) (Homo sapiens, UniProt P01116)"
val = "6.00 to 7.00"

[[record]]
compound = "N#Cc1c(N)sc2c(F)ccc(-c3c(C(F)(F)F)cc4c(N5C[C@@H](F)[C@@H](F)C5)nc(OC[C@@]56CCCN5C[C@H](F)C6)nc4c3F)c12"
test_target = "Avi-KRAS WT (1-169) GppNHp/RAF1 RBD-3xFLAG (52-151) (Homo sapiens, UniProt P01116)"
val = "6.00 to 7.00"

[[record]]
compound = "CCC(=O)N1CC[C@@H](N(C)c2nc(OC[C@@]34CCCN3C[C@H](F)C4)nc3c(F)c(-c4ccc(F)c5sc(N)c(C#N)c45)c(C(F)(F)F)cc23)C1"
test_target = "Avi-KRAS WT (1-169) GppNHp/RAF1 RBD-3xFLAG (52-151) (Homo sapiens, UniProt P01116)"
val = "6.00 to 7.00"

[[record]]
compound = "CN(CCCO)c1nc(OC[C@@]23CCCN2C[C@H](F)C3)nc2c(F)c(-c3ccc(F)c4sc(N)c(C#N)c34)c(C(F)(F)F)cc12"
test_target = "Avi-KRAS WT (1-169) GppNHp/RAF1 RBD-3xFLAG (52-151) (Homo sapiens, UniProt P01116)"
val = "6.00 to 7.00"


Incoming: Any idea what its pIC50 is? The compound is CC(C)C(=O)N1CC[C@@H](N(C)c2nc(OC[C@@]34CCCN3C[C@H](F)C4)nc3c(F)c(-c4ccc(F)c5sc(N)c(C#N)c45)c(C(F)(F)F)cc23)[C@H]1C
Outgoing: > 7.00

Incoming: Any idea what its pIC50 is? The compound is CO[C@H]1CN2CCC[C@@]2(COc2nc(N(C)[C@H]3C[C@@H](O)C3)c3cc(C(F)(F)F)c(-c4ccc(F)c5sc(N)nc45)c(F)c3n2)C1 (atropisomer, axis not shown)
Outgoing: 6.00 to 7.00

Incoming: Any idea what its pIC50 is? The compound is CCN(CCO)c1nc(OCC23CCCN2CCC3)nc2c(F)c(-c3ccc(F)c4sc(N)c(C#N)c34)c(C(F)(F)F)cc12
Outgoing: 6.00 to 7.00

Incoming: Any idea what its pIC50 is? The compound is N#Cc1c(N)sc2c(F)ccc(-c3c(C(F)(F)F)cc4c(N5CC6(COC6)C5)nc(OC[C@@]56CCCN5C[C@H](F)C6)nc4c3F)c12
Outgoing: 6.00 to 7.00

Incoming: Any idea what its pIC50 is? The compound is CN(c1nc(OCC2(CN3CCOCC3)CC2)nc2c(F)c(-c3ccc(F)c4sc(N)nc34)c(C(F)(F)F)cc12)[C@H]1C[C@@H](O)C1 (atropisomer, axis not shown)
Outgoing: 5.00 to 6.00

Incoming: Any idea what its pIC50 is? The compound is N#Cc1c(N)sc2c(F)ccc(-c3c(C(F)(F)F)cc4c(N5C[C@H](F)[C@@H](F)C5)nc(OC[C@@]56CCCN5C[C@H](F)C6)nc4c3F)c12
Outgoing: 6.00 to 7.00
